Give AUC(0-t) for every item shown.
# test.description: Plasma pharmacokinetics of 10 WDD components after gavage of WDD (LC-MS/MS, Phoenix NCA and compartment model)
# Assay type: in vivo, SD rats
# measurement.conditions: Sprague-Dawley, po; HTG: WDD 6.6 g/100 g by gavage, hyperlipidemia rat plasma, non-compartment, n = 6
One number for each entry, in ng·h/mL.

Known results for compounds:
| compound | attribute.measured | units | numeric.result |
| --- | --- | --- | --- |
| C[n+]1cccc(C(=O)[O-])c1 [Trigonelline] | AUC(0-t) | ng·h/mL | 6010 |
| COc1ccc([C@@H]2CC(=O)c3c(O)cc(O[C@@H]4O[C@H](CO[C@@H]5O[C@@H](C)[C@H](O)[C@@H](O)[C@H]5O)[C@@H](O)[C@H](O)[C@H]4O)cc3O2)cc1O [Hesperidin] | AUC(0-t) | ng·h/mL | 439 |

Now look at this one.
Quick note, AUC(0-t) for CC1(C)[C@@H](O[C@H]2O[C@H](C(=O)O)[C@@H](O)[C@H](O)[C@H]2O[C@@H]2O[C@H](C(=O)O)[C@@H](O)[C@H](O)[C@H]2O)CC[C@]2(C)[C@H]3C(=O)C=C4[C@@H]5C[C@@](C)(C(=O)O)CC[C@]5(C)CC[C@@]4(C)[C@]3(C)CC[C@@H]12 [Glycyrrhizic acid] landed at 128

* * *

Please go through the items and note down their Tmax.
# test.description: Plasma pharmacokinetics of 10 WDD components after gavage of WDD (LC-MS/MS, Phoenix NCA and compartment model)
# Assay type: in vivo, SD rats
# measurement.conditions: Sprague-Dawley, rat, plasma, po, 2.2 g/100 g, LTG: WDD 2.2 g/100 g by gavage, hyperlipidemia rat plasma, non-compartment, n = 6; read-out: Tmax
Give bare numbers, in min.

Answered examples (4):
| compound | Tmax, min |
| --- | --- |
| C[n+]1cccc(C(=O)[O-])c1 [Trigonelline] | 90 |
| COc1ccc(-c2cc(=O)c3c(OC)c(OC)c(OC)c(OC)c3o2)cc1 [Tangeretin] | 30 |
| C[C@@H]1O[C@@H](O[C@H]2[C@H](Oc3cc(O)c4c(c3)O[C@H](c3ccc(O)cc3)CC4=O)O[C@H](CO)[C@@H](O)[C@@H]2O)[C@H](O)[C@H](O)[C@H]1O [Naringin] | 32.4 |
| COc1ccc([C@@H]2CC(=O)c3c(O)cc(O[C@@H]4O[C@H](CO[C@@H]5O[C@@H](C)[C@H](O)[C@@H](O)[C@H]5O)[C@@H](O)[C@H](O)[C@H]4O)cc3O2)cc1O [Hesperidin] | 40.2 |

For each of the items listed, what is its Tmax?
1. O=C1C[C@@H](c2ccc(O)cc2)Oc2cc(O)cc(O)c21 [Naringenin]
2. CC1(C)[C@@H](O)CC[C@]2(C)[C@H]3C(=O)C=C4[C@@H]5C[C@@](C)(C(=O)O)CC[C@]5(C)CC[C@@]4(C)[C@]3(C)CC[C@@H]12 [Glycyrrhetinic acid]
3. O=C(/C=C/c1ccc(O)cc1)c1ccc(O)cc1O [Isoliquiritigenin]
4. COc1ccc([C@@H]2CC(=O)c3c(O)cc(O)cc3O2)cc1O [Hesperetin]

// result
[45, 45, 30, 85.2]

Recorded result, CC1(C)[C@@H](O[C@H]2O[C@H](C(=O)O)[C@@H](O)[C@H](O)[C@H]2O[C@@H]2O[C@H](C(=O)O)[C@@H](O)[C@H](O)[C@H]2O)CC[C@]2(C)[C@H]3C(=O)C=C4[C@@H]5C[C@@](C)(C(=O)O)CC[C@]5(C)CC[C@@]4(C)[C@]3(C)CC[C@@H]12 [Glycyrrhizic acid] , Tmax: 90

* * *

# test.description: Plasma pharmacokinetics of 10 WDD components after gavage of WDD (LC-MS/MS, Phoenix NCA and compartment model)
# Assay type: in vivo, SD rats
# measurement.conditions: Sprague-Dawley, rat, plasma, po, 6.6 g/100 g, HTG: WDD 6.6 g/100 g by gavage, hyperlipidemia rat plasma, non-compartment, n = 6; read-out: Tmax
Label 1.0 when Tmax >= 30 min; otherwise 0.0.

Use these answered entries as a reference point.
| mol | assigned.category |
| --- | --- |
| COc1ccc(-c2cc(=O)c3c(OC)c(OC)c(OC)c(OC)c3o2)cc1 | 0.0 |
| COc1ccc([C@@H]2CC(=O)c3c(O)cc(O[C@@H]4O[C@H](CO[C@@H]5O[C@@H](C)[C@H](O)[C@@H](O)[C@H]5O)[C@@H](O)[C@H](O)[C@H]4O)cc3O2)cc1O | 1.0 |
| C[n+]1cccc(C(=O)[O-])c1 | 1.0 |
| O=c1c(O)c(-c2ccc(O)c(O)c2)oc2cc(O)cc(O)c12 | 1.0 |
| C[C@@H]1O[C@@H](O[C@H]2[C@H](Oc3cc(O)c4c(c3)O[C@H](c3ccc(O)cc3)CC4=O)O[C@H](CO)[C@@H](O)[C@@H]2O)[C@H](O)[C@H](O)[C@H]1O | 0.0 |

// query Could you verify whether the entry `CC1(C)[C@@H](O[C@H]2O[C@H](C(=O)O)[C@@H](O)[C@H](O)[C@H]2O[C@@H]2O[C@H](C(=O)O)[C@@H](O)[C@H](O)[C@H]2O)CC[C@]2(C)[C@H]3C(=O)C=C4[C@@H]5C[C@@](C)(C(=O)O)CC[C@]5(C)CC[C@@]4(C)[C@]3(C)CC[C@@H]12` shows Tmax of no less than 30 min?
// result 0.0

// query Is Tmax at least 30 min? Consider `O=C1C[C@@H](c2ccc(O)cc2)Oc2cc(O)cc(O)c21`
// result 1.0

// query Can `CC1(C)[C@@H](O)CC[C@]2(C)[C@H]3C(=O)C=C4[C@@H]5C[C@@](C)(C(=O)O)CC[C@]5(C)CC[C@@]4(C)[C@]3(C)CC[C@@H]12` be said to have Tmax at or above 30 min?
// result 1.0

* * *

# test.description: Plasma pharmacokinetics of 10 WDD components after gavage of WDD (LC-MS/MS, Phoenix NCA and compartment model)
# Assay type: in vivo, SD rats
# measurement.conditions: Sprague-Dawley, po; HTG: WDD 6.6 g/100 g by gavage, hyperlipidemia rat plasma, non-compartment, n = 6
attribute.measured: Cmax (ng/mL)
One number for each entry, in ng/mL.

| mol | Cmax / ng/mL |
| --- | --- |
| COc1ccc(-c2cc(=O)c3c(OC)c(OC)c(OC)c(OC)c3o2)cc1 | 25.9 |
| O=C1C[C@@H](c2ccc(O)cc2)Oc2cc(O)cc(O)c21 | 139 |
| O=c1c(O)c(-c2ccc(O)c(O)c2)oc2cc(O)cc(O)c12 | 115 |

Would you kindly look at the next entry?
Form: compound = `O=C(/C=C/c1ccc(O)cc1)c1ccc(O)cc1O` ; Cmax = 17.8
